Measured Percent variations of plasma triglycerides with respect to the controls accompanies every entry in the list below.
- Test system: plasma levels of triglycerides
- procedure.details: Effect of oral administration on plasma levels of triglycerides in the empty rat
- Type: in vivo, rat (COBS CD (SD) BR male)
- measurement.context: 30 mg/kg oral referred to nicotinic acid, 2 h, empty rat
Numbers only; they are read as %.

Before answering, review these 3 worked examples.
O=C(OC[C@H](OC(=O)c1cccnc1)[C@@H](OC(=O)c1cccnc1)[C@H](OC(=O)c1cccnc1)[C@@H](COC(=O)c1cccnc1)OC(=O)c1cccnc1)c1cccnc1 [SORBINICATE, D-glucitol hexanicotinate]
-16
O=C(O)c1cccnc1 [NICOTINIC ACID, nicotinic acid]
-49
O=C(N[C@H]1C(OC(=O)c2cccnc2)O[C@H](COC(=O)c2cccnc2)[C@@H](OC(=O)c2cccnc2)[C@@H]1OC(=O)c1cccnc1)c1cccnc1 (stereo partly shown) [GLUN, N-nicotinoyl-glucosamine tetranicotinate]
-45

Now look at this one.
Prompt line: Query (compound): O=C(OCC(COC(=O)c1cccnc1)(COC(=O)c1cccnc1)COC(=O)c1cccnc1)c1cccnc1 [NICERITROLE, pentaerithritol-tetranicotinate] ; field requested: Percent variations of plasma triglycerides with respect to the controls
Response line: -27

----------
- procedure.details: in vivo
- measurement.context: rat, po, male, os
measurement.type: LD50

Prompt line: Requested read-out: LD50. Entry: O=C(N[C@H]1C(OC(=O)c2cccnc2)O[C@H](COC(=O)c2cccnc2)[C@@H](OC(=O)c2cccnc2)[C@@H]1OC(=O)c1cccnc1)c1cccnc1 (stereo partly shown) [GLUN, N-nicotinoyl-glucosamine tetranicotinate]
Response line: > 8000 mg/kg

----------
- Tested on: plasma levels of free glycerol
- procedure.details: Effect of oral administration on plasma levels of free glycerol in the empty rat
- Assay type: in vivo, rat (COBS CD (SD) BR male)
- measurement.context: 30 mg/kg oral, rat
measurement.type: Activity on free glycerol

O=C(OC[C@H](OC(=O)c1cccnc1)[C@@H](OC(=O)c1cccnc1)[C@H](OC(=O)c1cccnc1)[C@@H](COC(=O)c1cccnc1)OC(=O)c1cccnc1)c1cccnc1 [SORBINICATE, D-glucitol hexanicotinate]
active only after 1 hour
O=C(OCC(COC(=O)c1cccnc1)(COC(=O)c1cccnc1)COC(=O)c1cccnc1)c1cccnc1 [NICERITROLE, pentaerithritol-tetranicotinate]
active only after 1 hour
O=C(O)c1cccnc1 [NICOTINIC ACID, nicotinic acid]
active only after 1 hour

----------
- procedure.details: in vivo
- measurement.context: rat, po, 100 mg/kg
measurement.type: concentration at 4 h (ng/mL)
Note: unit ng/mL is implicit; provide only the numeric part.

Prompt line: Consider the molecule shown here: "O=C(O)c1cccnc1" What is its recorded concentration at 4 h?
Response line: 10600
